TARGET: Adenosine receptor A2a (Homo sapiens)
ASSAY_TEXT: Displacement of [3H]SCH-58261 from human Adenosine A2A receptor expressed in HEK293 cells; range 103-142
Assay type: cell-based
MEASUREMENT_LABEL: Ki (nM)
Field: numeric (nM). Do not append units.

Ask | Report Ki for `CCCn1cc2c(nc(NC(=O)Nc3ccccc3Cl)n3nc(-c4ccco4)nc23)n1` please.
Reply | 121

====

TARGET: Adenosine receptor A3 (Homo sapiens)
ASSAY_TEXT: Displacement of [3H]MRE3008-F20 from human Adenosine A3 receptor expressed in HEK cells; range 0.28-0.41
Assay type: cell-based, HEK293
MEASUREMENT_LABEL: Ki (nM)
Field: numeric (nM). Do not append units.

Ask | Report Ki for `Cn1cc2c(nc(NC(=O)Nc3ccc(F)cc3)n3nc(-c4ccco4)nc23)n1` please.
Reply | 0.34

====

TARGET: UniProt P30542
ASSAY_TEXT: Displacement of [3H]DPCPX from human Adenosine A1 receptor expressed in CHO cells; range 885-1163
Assay type: cell-based
MEASUREMENT_LABEL: pKi
Expect pKi as a plain number equal to -log10 of the molar concentration.

Ask | Report pKi for `Cn1cc2c(nc(NC(=O)Nc3ccc4c(c3)OCO4)n3nc(-c4ccco4)nc23)n1` please.
Reply | 5.99

====

TARGET: Adenosine receptor A3 (Homo sapiens, UniProt P0DMS8)
Sequence (P0DMS8 whole entry): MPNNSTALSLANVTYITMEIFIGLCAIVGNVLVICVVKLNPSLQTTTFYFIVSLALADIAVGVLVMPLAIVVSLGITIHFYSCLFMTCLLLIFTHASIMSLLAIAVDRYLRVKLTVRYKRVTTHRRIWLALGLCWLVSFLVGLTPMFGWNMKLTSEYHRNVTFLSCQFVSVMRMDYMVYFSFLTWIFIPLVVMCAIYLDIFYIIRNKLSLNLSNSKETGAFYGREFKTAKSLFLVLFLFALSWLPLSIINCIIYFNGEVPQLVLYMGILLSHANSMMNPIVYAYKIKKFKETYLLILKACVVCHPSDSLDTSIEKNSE
ASSAY_TEXT: biochemical
Description: Displacement of [3H]MRE3008-F20 from human Adenosine A3 receptor expressed in HEK cells; range 0.42-0.62
MEASUREMENT_LABEL: pKi
Expect pKi as a plain number equal to -log10 of the molar concentration.

Ask | Report pKi for `CCCn1cc2c(nc(NC(=O)Nc3ccc(C(F)(F)F)cc3)n3nc(-c4ccco4)nc23)n1` please.
Reply | 9.29

====

// Ratio lookup, one value per entry
TARGET: Adenosine receptors; A2b & A3 (Homo sapiens) (UniProt P29275+P0DMS8)
ASSAY_TEXT: Selectivity ratio (h2B/hA3)
Assay type: protein assay
Reply with the value as a number alone.

>>> observed("CCn1cc2c(nc(NC(=O)Nc3ccccc3)n3nc(-c4ccco4)nc23)n1")
489
>>> observed("CCCCn1cc2c(nc(NC(=O)Nc3ccccc3OC)n3nc(-c4ccco4)nc23)n1")
219

Ask | Report Ratio for `CCn1cc2c(nc(NC(=O)Cc3ccccc3)n3nc(-c4ccco4)nc23)n1` please.
Reply | 156

Ask | Report Ratio for `Cc1ccc(NC(=O)Nc2nc3nn(C)cc3c3nc(-c4ccco4)nn23)cc1` please.
Reply | 974

Ask | Report Ratio for `CCn1cc2c(nc(NC(=O)Nc3ccc(C)cc3)n3nc(-c4ccco4)nc23)n1` please.
Reply | 943

Ask | Report Ratio for `Cn1cc2c(nc(NC(=O)Nc3ccccc3Cl)n3nc(-c4ccco4)nc23)n1` please.
Reply | 111

Ask | Report Ratio for `Cn1cc2c(nc(NC(=O)Nc3ccccc3)n3nc(-c4ccco4)nc23)n1` please.
Reply | 1390

Ask | Report Ratio for `COc1ccccc1NC(=O)Nc1nc2nn(C)cc2c2nc(-c3ccco3)nn12` please.
Reply | 319

Ask | Report Ratio for `Cn1cc2c(nc(NC(=O)Nc3ccc(Cl)cc3)n3nc(-c4ccco4)nc23)n1` please.
Reply | 441

====

TARGET: Adenosine receptor A3 (Homo sapiens, UniProt P0DMS8)
ASSAY_TEXT: Displacement of [3H]MRE3008-F20 from human Adenosine A3 receptor expressed in HEK cells; range 31-50
Format: cell-based, HEK293
MEASUREMENT_LABEL: pKi
Expect pKi as a plain number equal to -log10 of the molar concentration.

Ask | Report pKi for `CCn1cc2c(nc(NC(=O)Nc3ccc(S(=O)(=O)O)cc3)n3nc(-c4ccco4)nc23)n1` please.
Reply | 7.40

====

TARGET: Adenosine receptor A2b (Homo sapiens, UniProt P29275)
Sequence (P29275 whole entry): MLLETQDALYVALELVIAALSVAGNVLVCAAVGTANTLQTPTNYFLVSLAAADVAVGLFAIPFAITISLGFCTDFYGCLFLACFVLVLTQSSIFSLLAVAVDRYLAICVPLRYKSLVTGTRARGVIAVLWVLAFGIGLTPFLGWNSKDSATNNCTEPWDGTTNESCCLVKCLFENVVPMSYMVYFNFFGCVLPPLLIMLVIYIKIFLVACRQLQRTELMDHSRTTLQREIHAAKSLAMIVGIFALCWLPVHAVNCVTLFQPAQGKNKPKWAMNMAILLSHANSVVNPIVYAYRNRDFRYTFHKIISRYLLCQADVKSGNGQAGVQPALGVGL
ASSAY_TEXT: Displacement of [3H]DPCPX from human Adenosine A2B receptor expressed in HEK293 cells; range 162-237
Assay type: cell-based
MEASUREMENT_LABEL: Ki (µM)
Field: numeric (µM). Do not append units.

Ask | Report Ki for `CCn1cc2c(nc(NC(=O)Nc3ccccc3OC)n3nc(-c4ccco4)nc23)n1` please.
Reply | 0.196

====

TARGET: Adenosine receptor A1 (Homo sapiens)
Sequence (P30542 whole entry): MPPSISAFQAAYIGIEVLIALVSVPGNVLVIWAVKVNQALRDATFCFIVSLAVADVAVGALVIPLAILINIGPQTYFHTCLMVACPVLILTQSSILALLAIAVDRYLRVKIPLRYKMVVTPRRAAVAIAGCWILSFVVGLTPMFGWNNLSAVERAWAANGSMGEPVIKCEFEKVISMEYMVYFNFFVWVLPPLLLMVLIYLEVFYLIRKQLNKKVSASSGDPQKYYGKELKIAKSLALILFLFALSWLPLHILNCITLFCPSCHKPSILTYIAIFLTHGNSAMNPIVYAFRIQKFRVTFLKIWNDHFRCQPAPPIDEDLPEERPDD
ASSAY_TEXT: Displacement of [3H]DPCPX from human Adenosine A1 receptor expressed in CHO cells; range 601-888
Assay type: cell-based
MEASUREMENT_LABEL: Ki (µM)
Field: numeric (µM). Do not append units.

Ask | Report Ki for `Cc1ccc(NC(=O)Nc2nc3nn(C)cc3c3nc(-c4ccco4)nn23)cc1` please.
Reply | 0.731

====

TARGET: Adenosine receptor A2a (Homo sapiens, UniProt P29274)
Sequence (P29274 whole entry): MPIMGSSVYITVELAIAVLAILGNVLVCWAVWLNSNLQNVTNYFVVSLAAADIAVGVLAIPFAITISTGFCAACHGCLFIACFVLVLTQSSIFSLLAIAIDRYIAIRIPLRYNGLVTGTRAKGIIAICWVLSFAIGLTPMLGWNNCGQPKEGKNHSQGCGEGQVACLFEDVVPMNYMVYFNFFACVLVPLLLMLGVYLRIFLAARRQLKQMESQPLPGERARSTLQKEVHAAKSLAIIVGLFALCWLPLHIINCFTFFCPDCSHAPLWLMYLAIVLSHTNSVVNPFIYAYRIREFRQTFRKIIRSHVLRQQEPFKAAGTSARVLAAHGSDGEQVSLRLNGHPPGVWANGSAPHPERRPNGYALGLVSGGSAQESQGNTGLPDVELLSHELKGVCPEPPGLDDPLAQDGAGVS
ASSAY_TEXT: Displacement of [3H]SCH-58261 from human Adenosine A2A receptor expressed in HEK293 cells; range 33-48
Type: cell-based
MEASUREMENT_LABEL: Ki (µM)
Field: numeric (µM). Do not append units.

Ask | Report Ki for `CCn1cc2c(nc(NC(=O)Nc3ccccc3)n3nc(-c4ccco4)nc23)n1` please.
Reply | 0.04

====

TARGET: Adenosine receptor A2a (Homo sapiens)
ASSAY_TEXT: Displacement of [3H]SCH-58261 from human Adenosine A2A receptor expressed in HEK293 cells; range 312-515
Type: cell-based
MEASUREMENT_LABEL: Ki (nM)
Field: numeric (nM). Do not append units.

Ask | Report Ki for `CCCCn1cc2c(nc(NC(=O)Cc3ccccc3)n3nc(-c4ccco4)nc23)n1` please.
Reply | 400

====

TARGET: UniProtKB P0DMS8
ASSAY_TEXT: Displacement of [3H]MRE3008-F20 from human Adenosine A3 receptor expressed in HEK cells; range 0.24-0.48
Assay type: cell-based, HEK293
MEASUREMENT_LABEL: Ki (nM)
Field: numeric (nM). Do not append units.

Ask | Report Ki for `CCCn1cc2c(nc(NC(=O)Nc3ccc(Cl)cc3)n3nc(-c4ccco4)nc23)n1` please.
Reply | 0.34

====

TARGET: Adenosine receptor A2a (Homo sapiens, UniProt P29274)
ASSAY_TEXT: Displacement of [3H]SCH-58261 from human Adenosine A2A receptor expressed in HEK293 cells; range 199-311
Format: cell-based
MEASUREMENT_LABEL: Ki (nM)
Field: numeric (nM). Do not append units.

Ask | Report Ki for `CCn1cc2c(nc(NC(=O)Nc3ccc(S(=O)(=O)O)cc3)n3nc(-c4ccco4)nc23)n1` please.
Reply | 249

====

TARGET: Adenosine receptors; A1 & A3 (Homo sapiens) (UniProt P30542+P0DMS8)
ASSAY_TEXT: Selectivity ratio (hA1/hA3)
Format: protein assay
MEASUREMENT_LABEL: Ratio
Reply with the value as a number alone.

These recorded examples may help you get a feel for the data.
>>> observed("CCCCn1cc2c(nc(NC(=O)Nc3ccccc3Cl)n3nc(-c4ccco4)nc23)n1")
326
>>> observed("CCCCn1cc2c(nc(NC(=O)Nc3ccc4c(c3)OCO4)n3nc(-c4ccco4)nc23)n1")
820
>>> observed("Cn1cc2c(nc(NC(=O)Nc3ccc(Br)cc3)n3nc(-c4ccco4)nc23)n1")
1300

// next item, Ratio requested
Ask | Report Ratio for `CCn1cc2c(nc(NC(=O)Nc3cccc(OC)c3)n3nc(-c4ccco4)nc23)n1` please.
Reply | 465
